system: VchCAST RNA-guided transposition machinery (E. coli BL21(DE3) host, lacZ target); assay: relative integration efficiency (T-RL orientation) vs wild-type transposon end (log2 (normalized fold change)); transposon end mutated: left end; higher = more efficient transposition
Parameter threshold = -4. Response is Condition met when relative integration efficiency (log2) meets or exceeds it, else Condition not met.

Reference set (5 entries):
AATGTTGTTGATGCAACCATAAAGTGATATTTAATAATTATTTATAATCAGCAACAACCATATATTGATATCTCACAAAACAACCATAAGTTGATATTTTTGTGAATCGAGTATTTCAGCAAAACTACTGCAGTAAGAAAGTTACTTCGTGG = Condition not met
AATGTTGTTGATGCAACCATAAAGTGATATTTAATAATTATTTATAATCAGCAACTTAACCACAAAACAACCATATATTGATATCTACAAAACAACCATAAGTTGATATTTTTGTGAATCGAGTATTTCAGCAAAACTACTGCAGTAAGAAA = Condition met
AATGTTGTTGATGTGTCAACCATAAAGTGATATTTAATAATTATTTATAATCAGCAACTTAACCACAAAACAACCATATATTGATATCTCACAAAACAACCATAAGTTGATATTTTTGTGAATCGAGTATTTCAGCAAAACTACTGCAGTAA = Condition met
AATGTTGTTGATGCAACCATAAAGTGATATTTAATAATTATTTATAATCAGCAACTTAACCACAAAACAACCATATATTGATATAGACACCCCACCAACGCCTGGTCGCGGGGGTGTCCGATCTGATTTCAGCAAAACTACTGCAGTAAGAA = Condition met
AATGTTGTTGATGCAACCATAAAGTGATATTTAATAATTATTTATAATCAGCAACTTAACCACAACCACCAACGCGCGGTCGCGAGACACCCCACCAACGCCTGGTCGCGGGGGTGTCCGATCTGATTTCAGCAAAACTACTGCAGTAAGAA = Condition not met

Please indicate if the recorded relative integration efficiency (log2) for AATGTTGTTGATGCAACCATAAAGTGATATTTAATAATTATTTATAATCAGCAACTTAACCACCAACCATATATTGATATCTCAAAAACAAAACAACCATAAGTTGATATTTTTGTGAATCGAGTATTTCAGCAAAACTACTGCAGTAAGAA meets or exceeds -4.
Condition met

Next record, please: AATGTTGTTGATGCAACCATAAAGTGATATTTAATAATTATTTATAATCAGCAACTTAACCACAAAACAACCATATATTGATATCTCACAAAACAACCATAAGTTGATATGTGAATCGAGTATTTCAGCAAAACTACTGCAGTAAGAAAGTT
Condition met

====

system: VchCAST RNA-guided transposition machinery (E. coli BL21(DE3) host, lacZ target); experiment: relative integration efficiency (T-RL orientation) vs wild-type transposon end (log2 (normalized fold change)); transposon end mutated: right end (5 bp flank + 75 bp right end); higher = more efficient transposition
Parameter threshold = -0.5. Response is MET when relative integration efficiency (log2) meets or exceeds it, else NOT MET.

Please indicate if the recorded relative integration efficiency (log2) for ACATTTGTTGATACACCCATAAATTGATATTGCCACCCATAAATTGATAATTATCACACCCATAAATTGATATTGCCTCTGATCATAGTCAGACCAACATTGCTACGACCCGTATTCGCACCGACAC meets or exceeds -0.5.
NOT MET

Next record, please: ACATTTGTTGATACAACCAATTTATGATAATTACACCCATAAATTGATAATTATCACACCCATAAATTGATATTGCCTCTGATCATAGTCAGACCAACATTGCTACGACCCGTATTCGCACCGACAC
MET

Next record, please: ACATTTGTTGATACAACCATAAAATGATTTTTACACCCATAAATTGATAATTATCACACCCATAAATTGATATTGCCTCTGATCATAGTCAGACCAACATTGCTACGACCCGTATTCGCACCGACAC
MET

Next record, please: ACATTTGTTGATACAACCATAAAATGATAATTACACCCATAAATTGATAATTATCACACCCATAAATTGATATTGCCTCTGATCATAGTCTTGTGAGCGGATAACAAAGACCAACATGCACCGACAC
MET

Next record, please: ACATTTGTTGATACAACCATAAAATGATAATTACACCCATAAATTGATAATTATCACACCCATAAATTGATATTGCCTCTGATAACTTCGTATAAGGTATACTATACGAAGTTATTCGCACCGACAC
MET

Next record, please: ACATTTGTTGATACAACCATAAGTTGATATTTTCACCCATAAATTGATAATTATCACACCCATAAATTGATAATTACTCTGATCATAGTCAGACCAACATTGCTACGACCCGTATTCGCACCGACAC
MET

Next record, please: ACATTTGTTGATACAACCATAAAATCATCATTACACCCATAAATTGATAATTATCCCACCCCATTTAACTATAACGCTCTGATCATAGTCAGACCAACATTGCTACGACCCGTATTCGCACCGACAC
NOT MET

Data provenance: the supplement of paper PMC10201428
